- assay_name: LNS8801 pharmacokinetics in patients with advanced cancer (plasma concentration by mass spectrometry)
- Type: in vivo, human
- test_context: human, plasma, oral, humans, 10, 40, 125 mg capsule, three consecutive days/week
quantity: half-life

[Q] Using the record for "CC(=O)c1ccc2c(c1)[C@@H]1C=CC[C@@H]1[C@H](c1cc3c(cc1Br)OCO3)N2" , report its half-life.
[A] ~10 h
